tested on: RXRa DBDmut IVT, anti-RXR (DBD mutation: RXRa K156A/R161A, NR concentration 90 nM); assay: PBM binding z-score (relative to random genomic background probes); higher = stronger binding; sequences stand for … in GC…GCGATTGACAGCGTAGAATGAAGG
quantity kind: PBM binding z-score
Reply with just the number.

These recorded examples may help you get a feel for the data.
| residue codes | experimental result |
| --- | --- |
| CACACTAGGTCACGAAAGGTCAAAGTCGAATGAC | 2.87 |
| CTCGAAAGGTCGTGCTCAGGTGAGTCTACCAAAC | 2.42 |
| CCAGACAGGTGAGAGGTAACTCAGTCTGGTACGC | -0.348 |
| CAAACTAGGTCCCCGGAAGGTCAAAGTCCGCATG | 0.0846 |
| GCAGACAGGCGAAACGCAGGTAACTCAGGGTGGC | -0.577 |
| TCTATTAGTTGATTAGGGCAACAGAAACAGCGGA | 0.926 |

Q) Quote PBM binding z-score reported for `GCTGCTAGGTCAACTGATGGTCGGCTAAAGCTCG` please.
A) 1.82

Q) Tell me measured PBM binding z-score for `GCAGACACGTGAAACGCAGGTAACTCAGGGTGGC` please.
A) -0.425

Q) Look up and report measured PBM binding z-score for this entry: `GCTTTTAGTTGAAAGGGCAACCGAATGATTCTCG`
A) 0.971

Q) Identify PBM binding z-score associated with the sequence `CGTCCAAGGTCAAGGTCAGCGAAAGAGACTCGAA`
A) 3.44

Q) Look up and report measured PBM binding z-score for this entry: `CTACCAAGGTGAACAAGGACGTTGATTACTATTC`
A) 0.601

Q) Respond only with PBM binding z-score recorded for `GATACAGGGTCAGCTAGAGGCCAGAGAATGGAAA`
A) 1.73
